Tested on: 301 cancer cell lines from different tumor types (OncoPanel; HD Biosciences)
Experiment: 2D cell viability inhibition assay (CellTiter-Glo) in cancer cell line panel
Format: cell-based
Conditions: Homo sapiens, Granta-519, GRANTA519 cell line
experimental_readout: EC50 (nM)
Give just the number in nM; leave the unit off.

Request: Which measured EC50 value corresponds to `CC(C)c1ccc(N(C)c2ccc3c(c2)OCC[C@H]3CNc2cnccc2C(=O)O)cc1` ?
Response: 14.9

====

Test system: 301 cancer cell lines from different tumor types (OncoPanel; HD Biosciences)
Experiment: 2D cell viability inhibition assay (CellTiter-Glo) in cancer cell line panel
Assay type: cell-based
Conditions: Homo sapiens, Calu-6, CALU6 cell line
experimental_readout: IC50 (nM)
Give just the number in nM; leave the unit off.

Request: Which measured IC50 value corresponds to `CC(C)c1ccc(N(C)c2ccc3c(c2)OCC[C@H]3CNc2cnccc2C(=O)O)cc1` ?
Response: 14.9

====

System: 301 cancer cell lines from different tumor types (OncoPanel; HD Biosciences)
Assay: 2D cell viability inhibition assay (CellTiter-Glo) in cancer cell line panel
Assay type: cell-based
Conditions: Homo sapiens, MES-SA, MESSA cell line
experimental_readout: pIC50
Scale explanation: pIC50 corresponds to minus log10 of a concentration expressed in moles per litre.

Request: Which measured pIC50 value corresponds to `CC(C)c1ccc(N(C)c2ccc3c(c2)OCC[C@H]3CNc2cnccc2C(=O)O)cc1` ?
Response: 7.84
